assayed target: Estrogen receptor (Bos taurus)
Sequence (P49884 whole entry): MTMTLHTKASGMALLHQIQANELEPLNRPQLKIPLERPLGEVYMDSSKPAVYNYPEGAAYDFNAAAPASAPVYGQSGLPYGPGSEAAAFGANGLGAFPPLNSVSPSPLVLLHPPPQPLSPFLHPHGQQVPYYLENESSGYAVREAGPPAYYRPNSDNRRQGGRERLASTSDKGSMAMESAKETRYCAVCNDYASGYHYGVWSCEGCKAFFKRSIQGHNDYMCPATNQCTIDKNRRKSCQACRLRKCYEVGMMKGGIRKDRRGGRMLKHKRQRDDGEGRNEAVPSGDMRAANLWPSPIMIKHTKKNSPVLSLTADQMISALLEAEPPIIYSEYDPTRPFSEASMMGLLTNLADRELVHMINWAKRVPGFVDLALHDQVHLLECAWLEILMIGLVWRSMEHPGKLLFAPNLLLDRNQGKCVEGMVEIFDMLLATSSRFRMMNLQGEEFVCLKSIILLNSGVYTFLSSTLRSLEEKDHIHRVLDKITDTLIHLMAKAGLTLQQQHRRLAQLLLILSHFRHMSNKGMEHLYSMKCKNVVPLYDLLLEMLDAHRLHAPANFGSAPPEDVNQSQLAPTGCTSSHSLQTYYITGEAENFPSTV
endpoint name: IC50 (nM)
The figure you give is taken to be in nM; do not add the unit.

| smiles record | unit symbol | reported result |
| --- | --- | --- |
| C=C[C@H](/C=C\c1ccc(O)cc1)c1ccc(O)cc1 | nM | 400 |

# ---- query compound ----
Problem: Could you tell me which IC50 is on file for `C=C[C@@H](/C=C\c1ccc(O)cc1)c1ccc(O)cc1` ?
Result: 60
